# credit: patent US8658642B2

assay.readout: melting point

{"structure.smiles": "CN(C)S(=O)(=O)N1CCN(S(=O)(=O)c2cc([N+](=O)[O-])ccc2Sc2cc(Cl)ccc2Cl)CC1", "melting point": "231 to 234 °C"}

Task: Complete the entry with melting point for O=[N+]([O-])c1ccc(Sc2cc(Cl)ccc2Cl)c(S(=O)(=O)N2CCN(S(=O)(=O)c3ccccc3)CC2)c1
Result: 236 to 239 °C

Task: Complete the entry with melting point for O=C(c1ccco1)N1CCN(S(=O)(=O)c2cc([N+](=O)[O-])ccc2Sc2cc(Cl)ccc2Cl)CC1
Result: 199 to 202 °C

----------
Parameter: Ki. Scope: all listed entries.
target.or.test.system: CCR3 (Homo sapiens, UniProt P51677)
Sequence (P51677 1-355): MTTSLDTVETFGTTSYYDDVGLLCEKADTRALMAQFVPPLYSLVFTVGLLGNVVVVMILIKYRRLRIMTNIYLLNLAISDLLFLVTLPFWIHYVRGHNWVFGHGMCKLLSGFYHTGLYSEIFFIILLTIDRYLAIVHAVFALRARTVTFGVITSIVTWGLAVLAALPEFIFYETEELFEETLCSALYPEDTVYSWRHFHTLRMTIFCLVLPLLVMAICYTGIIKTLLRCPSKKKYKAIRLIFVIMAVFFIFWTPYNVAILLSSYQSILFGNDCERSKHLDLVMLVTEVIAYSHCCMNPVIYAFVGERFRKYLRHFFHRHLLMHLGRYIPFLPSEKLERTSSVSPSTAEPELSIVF

Worked cases, answers included:
{"structure.smiles": "CC(C)NC(=O)N1CCN(S(=O)(=O)c2cc(C#N)ccc2Sc2cc(Cl)cc(Cl)c2)CC1", "Ki": "> 5 µM"}
{"structure.smiles": "CS(=O)(=O)N1CCN(S(=O)(=O)c2cc(C#N)ccc2Oc2cc(Cl)cc(Cl)c2)CC1", "Ki": "≤ 0.05 µM"}
{"structure.smiles": "Cc1ccc(OC(=O)N2CCN(S(=O)(=O)c3cc(C#N)ccc3Oc3cc(Cl)cc(Cl)c3)CC2)cc1", "Ki": "> 5 µM"}

Now consider a different molecule.
Task: Complete the entry with Ki for CC(C)CC(=O)N1CCN(S(=O)(=O)c2cc([N+](=O)[O-])ccc2Sc2cc(Cl)ccc2Cl)CC1
Result: > 5 µM
